Hello, the source for this data is patent US20240059677A1, in case you need it.

// reported IC50 for each item listed
TEST_TARGET: human nAChRα6-α3 chimera, in addition to β2 and β3^V273S subunits (Homo sapiens, UniProt P32297+Q15825)
Construct: expressed in transfected cells
Sequence (Q05901 25-458 V273S): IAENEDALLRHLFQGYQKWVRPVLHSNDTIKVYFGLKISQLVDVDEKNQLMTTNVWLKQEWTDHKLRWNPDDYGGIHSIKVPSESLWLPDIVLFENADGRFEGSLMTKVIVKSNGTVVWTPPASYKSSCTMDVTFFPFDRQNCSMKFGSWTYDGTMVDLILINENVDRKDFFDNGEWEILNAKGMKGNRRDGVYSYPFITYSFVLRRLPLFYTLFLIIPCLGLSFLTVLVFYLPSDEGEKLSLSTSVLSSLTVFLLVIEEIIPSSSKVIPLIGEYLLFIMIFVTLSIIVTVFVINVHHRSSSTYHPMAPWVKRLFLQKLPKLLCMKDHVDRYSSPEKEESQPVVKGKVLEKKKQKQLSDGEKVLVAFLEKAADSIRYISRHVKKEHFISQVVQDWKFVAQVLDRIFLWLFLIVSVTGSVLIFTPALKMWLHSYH
Sequence (P17787 26-502, stated change not applied, further chain): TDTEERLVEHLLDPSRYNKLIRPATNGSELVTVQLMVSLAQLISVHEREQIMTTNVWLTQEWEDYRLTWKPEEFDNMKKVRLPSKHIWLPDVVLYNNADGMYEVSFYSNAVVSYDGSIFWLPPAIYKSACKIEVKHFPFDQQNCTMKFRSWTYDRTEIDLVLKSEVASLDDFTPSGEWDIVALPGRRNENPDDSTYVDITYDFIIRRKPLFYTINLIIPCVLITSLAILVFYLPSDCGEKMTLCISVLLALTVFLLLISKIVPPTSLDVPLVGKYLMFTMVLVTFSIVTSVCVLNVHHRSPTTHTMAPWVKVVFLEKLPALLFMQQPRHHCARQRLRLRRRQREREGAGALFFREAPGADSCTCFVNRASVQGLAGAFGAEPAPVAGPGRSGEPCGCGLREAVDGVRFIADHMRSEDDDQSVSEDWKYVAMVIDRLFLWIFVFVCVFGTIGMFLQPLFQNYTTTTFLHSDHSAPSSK
Sequence (Q15825+P32297 fused with the stated changes): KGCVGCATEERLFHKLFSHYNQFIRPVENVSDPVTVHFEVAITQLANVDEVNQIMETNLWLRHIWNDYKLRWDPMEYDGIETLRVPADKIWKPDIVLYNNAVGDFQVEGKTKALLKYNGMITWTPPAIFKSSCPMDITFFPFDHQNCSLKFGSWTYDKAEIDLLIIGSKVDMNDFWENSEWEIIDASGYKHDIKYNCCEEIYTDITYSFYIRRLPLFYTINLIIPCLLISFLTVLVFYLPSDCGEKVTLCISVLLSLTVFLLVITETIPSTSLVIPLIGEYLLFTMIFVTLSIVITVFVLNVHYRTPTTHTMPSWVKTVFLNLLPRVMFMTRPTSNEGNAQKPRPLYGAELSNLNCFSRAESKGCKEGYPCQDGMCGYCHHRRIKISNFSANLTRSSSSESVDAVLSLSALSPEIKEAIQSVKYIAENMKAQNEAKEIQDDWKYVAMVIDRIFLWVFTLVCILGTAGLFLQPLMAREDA
PROTOCOL_DESCRIPTION: fluorescence-based calcium assay: inhibition of nicotine stimulated nAChRα6 activity (FLIPR)
PROTOCOL_CONDITIONS: HEK cell line stably expressing the receptor; 10 min pre-incubation, nicotine EC80; 10-point curve, duplicate wells; read-out: IC50

COMPOUND	UNIT_INFO	IC50
CC(C)N1CCCC(Nc2ncc(-c3ccc(F)cc3)cn2)C1 (centres unmarked) [Example 6]	µM	0.123
Cc1nc(NC2CCN3CCCC23)ncc1-c1ccc(OC(F)(F)F)cc1F (single isomer, unassigned) [Example 97d]	µM	0.299
Cc1nc(NC(=O)[C@@H]2CCCN2C)ncc1-c1ccc(C(F)(F)F)cc1F [Example 140]	µM	0.079
Cc1nc(NC(C)C2CCN(C)C2)ncc1-c1ccc(F)cc1F (single isomer, unassigned) [Example 64b]	µM	0.088
Cc1nc(NC(C)C2CCN(C)C2)ncc1-c1ccc(F)cc1F (single isomer, unassigned) [Example 64a]	µM	0.09
Cc1nc(NC[C@H]2CCCN2C)ncc1-c1ccc(F)cc1C(F)(F)F [Example 92a]	µM	0.033
Cc1nc(N[C@H]2CCCC[C@@H]2N(C)C)ncc1-c1ccc(C(F)(F)F)cc1F [Example 109]	µM	0.096
Cc1nc(NC[C@@H]2CN(C)CCO2)ncc1-c1ccc(C(F)(F)F)cc1F (single isomer, unassigned) [Example 108a]	µM	0.086
Cc1nc(NC[C@H]2NCC[C@@H]2F)ncc1-c1ccc(C(F)(F)F)cc1F (single isomer, unassigned) [Example 133a]	µM	0.305
Cc1nc(NCC2CCCN(C)C2)ncc1-c1ccc(C(F)(F)F)cc1F (centres unmarked) [Example 107]	µM	0.154
Cc1nc(NC[C@H]2CCCN2C)ncc1-c1ccc(F)cc1F [Example 24b]	µM	0.005
CN(C)C1CCCC(Nc2ncc(-c3ccc(F)cc3F)c(C#N)n2)C1 (single isomer, unassigned) [Example 59a]	µM	0.202
COc1ccc(-c2cnc(NCC3CCN(C)C3)nc2C#N)c(F)c1 (centres unmarked) [Example 31]	µM	0.082
Cc1nc(NC2CCCN(C(C)C)C2)ncc1-c1ccc(F)cc1 (centres unmarked) [Example 9]	µM	0.264
Cc1nc(NC2CCC(S(C)(=O)=O)C2)ncc1-c1ccc(F)cc1F (centres unmarked) [Example 52]	µM	1.53
Cc1nc(N[C@@H]2CNC[C@@H]2F)ncc1-c1ccc(C(F)(F)F)cc1F (relative stereo) [Example 112]	µM	0.107
Cc1nc(NC2CC3(CNC3)C2)ncc1-c1ccc(C(F)(F)F)cc1F [Example 122]	µM	0.039

###

Reported IC50 is given for each of the following compounds.
TEST_TARGET: human nAChRα6-α3 chimera, in addition to β2 and β3^V273S subunits (Homo sapiens, UniProt P32297+Q15825)
Construct: expressed in transfected cells
PROTOCOL_DESCRIPTION: fluorescence-based calcium assay: inhibition of nicotine stimulated nAChRα6 activity (FLIPR)
PROTOCOL_CONDITIONS: HEK cell line stably expressing the receptor; 10 min pre-incubation, nicotine EC80; 10-point curve, duplicate wells; read-out: IC50

COMPOUND	IC50 [nM]
COc1ccc(-c2cnc(NCC3CCCN(C(C)C)C3)nc2C)c(F)c1 (stereo not drawn)	69
COc1ccc(-c2c(C)nc(NCC3CCCN3C)nc2C)c(F)c1 (stereo not drawn)	72
Cc1nc(NC[C@@H]2CCCN2CC(F)(F)F)ncc1-c1ccc(F)cc1F [Example 95b]	70
